// values below are reported Kb
# Target of assay: LHRH (Rattus norvegicus, UniProt P30969)
# Construct: endogenous in cells; host or cells: rat pituitary cells (own knowledge of the cited Haviv 1989 method)
# Sequence (P30969 whole entry): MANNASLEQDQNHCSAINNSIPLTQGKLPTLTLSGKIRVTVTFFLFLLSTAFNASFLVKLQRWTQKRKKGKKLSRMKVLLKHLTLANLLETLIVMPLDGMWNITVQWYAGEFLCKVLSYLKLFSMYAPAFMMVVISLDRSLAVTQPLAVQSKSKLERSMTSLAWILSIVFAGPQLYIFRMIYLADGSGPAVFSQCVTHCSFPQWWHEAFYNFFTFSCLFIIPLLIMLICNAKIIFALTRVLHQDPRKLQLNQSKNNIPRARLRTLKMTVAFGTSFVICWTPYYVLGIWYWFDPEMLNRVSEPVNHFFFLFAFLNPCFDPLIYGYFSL
# Test method notes: in vitro test for LHRH antagonist potency (pA2)
# Assay type: cell-based
# Condition info: negative logarithm of the antagonist concentration required to shift the response curve produced by the agonist leuprolide to two-fold higher concentration
Non-standard residues stand in square brackets, D forms with d. Residues, ends and D or L forms follow the SMILES beside them. *: point of attachment. dPhe(4-Cl) = N[C@H](Cc1ccc(Cl)cc1)C(=O)O; d2Nal = N[C@H](Cc1ccc2ccccc2c1)C(=O)O; NMeY = CN[C@@H](Cc1ccc(O)cc1)C(=O)O; dCit = NC(=O)NCCC[C@@H](N)C(=O)O; d3Pal = N[C@H](Cc1cccnc1)C(=O)O; X8 = O=C1CC[C@H](C(=O)*)O1
Form entry: value (nM) — number only.

>>> recorded_value("CC(C)C[C@H](NC(=O)[C@@H](CCCNC(N)=O)NC(=O)[C@H](Cc1ccc(O)cc1)N(C)C(=O)[C@H](CO)NC(=O)[C@@H](Cc1cccnc1)NC(=O)[C@@H](Cc1ccc(Cl)cc1)NC(=O)[C@@H](Cc1ccc2ccccc2c1)NC(=O)[C@H]1CCC(=O)O1)C(=O)N[C@@H](CCCNC(=N)N)C(=O)N1CCC[C@H]1C(=O)N[C@H](C)C(N)=O [Example 78a] (X8-[d2Nal][dPhe(4-Cl)][d3Pal]S[NMeY][dCit]LRP[dA]-NH2)")
0.0105
>>> recorded_value("CC(C)C[C@H](NC(=O)[C@@H](CCCCNC(=O)c1cccnc1)NC(=O)[C@H](Cc1ccc(O)cc1)N(C)C(=O)[C@H](CO)NC(=O)[C@@H](Cc1cccnc1)NC(=O)[C@@H](Cc1ccc(Cl)cc1)NC(=O)[C@H](Cc1ccc2ccccc2c1)NC(=O)CNC(=O)[C@@H]1CCCO1)C(=O)N[C@@H](CCCCNC(C)C)C(=O)N1CCC[C@H]1C(=O)N[C@H](C)C(N)=O")
0.891

The reported value for CC(C)C[C@H](NC(=O)[C@@H](CCCCNC(=O)c1cccnc1)NC(=O)[C@@H](Cc1ccc(O)cc1)N(C)C(=O)[C@H](CO)NC(=O)[C@@H](Cc1cccnc1)NC(=O)[C@@H](Cc1ccc(Cl)cc1)NC(=O)[C@@H](Cc1ccc2ccccc2c1)NC(=O)CNC(=O)[C@@H]1CCCO1)C(=O)N[C@@H](CCCCNC(C)C)C(=O)N1CCC[C@H]1C(=O)N[C@H](C)C(N)=O in terms of Kb is 0.457
